# Target under test: T1, biotinylated goat anti-human kappa light chain
# T1 construct: Positive control of the ELISA
# Test: ELISA, positive control; note: test concentration or dose not given here
Quick list: optical density per entry.
The response must be a number in OD with no trailing unit.

376_G01 (antibody, V domains shown, VH and VL only) VH: EVQLLESGGGLVQPGGSLRLSCAASGFTFDDYSMNWVRQAPGKGLEWVSGINYNSGYKSYADSVKGRFTISRDNSKNTLYLQMNSLRAEDTAVYYCARSATWHDTHLDYWGQGTLVTVSS VL: DIQMTQSPSSLSASVGDRVTITCRASQSILSYVNWYQQKPGKAPKLVIYAVTSRASGVPSRFSGSGSGTDFTLTISSLQPEDFATYYCQQSYELPLTFGGGTKVEIK; 3.18
373_H12 (antibody, V domains shown, VH and VL only) VH: EVQLLESGGGLVQPGGSLRLSCAASGFTFSDYSMNWVRQAPGKGLEWVSGINYNSGYKGYADSVKGRFTISRDNSKNTLYLQMNSLRAEDTAVYYCARSATWHDTHLDYWGQGTLVTVSS VL: DIQMTQSPSSLSASVGDRVTITCRASQSILTYLNWYQQKPGKAPKLLIYAATSRASGVPSRFSGSGSGTDFTLTISSLQPEDFATYYCQQSYNSPLTFGGGTKVEIK; 3
374_C07 (antibody, V domains shown, VH and VL only) VH: EVQLLESGGGLVQPGGSLRLSCAASGFTFDSYSMNWVRQAPGKGLEWVSNINYNGGYTSYADSVKGRFTISRDNSKNTLYLQMNSLRAEDTAVYYCARSATWHDTHLDYWGQGTLVTVSS VL: DIQMTQSPSSLSASVGDRVTITCRASQSIISYLNWYQQKPGKAPKLLIYAATSRASGVPSRFSGSGSGTDFTLTISSLQPEDFATYYCQQSDELPLTFGGGTKVEIK; 3.22
375_F01 (antibody, V domains shown, VH and VL only) VH: EVQLLESGGGLVQPGGSLRLSCAASGFTFSSYSMNWVRQAPGKGLEWVSSINYNSGYTGYADSVKGRFTISRDNSKNTLYLQMNSLRAEDTAVYYCARSATWHDTHLDYWGQGTLVTVSS VL: DIQMTQSPSSLSASVGDRVTITCRASQSIVSYLNWYQQKPGKAPKLVIYAATSRASGVPSRFSGSGSGTDFTLTISSLQPEDFATYYCQQSYDNPLTFGGGTKVEIK; 2.96

API: the following record is the query input.
Determine its reported optical density: 371_F12 (antibody, V domains shown, VH and VL only) VH: EVQLLESGGGLVQPGGSLRLSCAASGFTFDSYSMNWVRQAPGKGLEWVSNINYNGGYKSYADSVKGRFTISRDNSKNTLYLQMNSLRAEDTAVYYCARSATWHDTHLDYWGQGTLVTVSS VL: DIQMTQSPSSLSASVGDRVTITCRASQSIISYLNWYQQKPGKAPKLLIYAATSRASGVPSRFSGSGSGTDFTLTISSLQPEDFATYYCQQSNNLPLTFGGGTKVEIK 3.62
